Numbers sourced from ChEMBL document CHEMBL1135497.

- target_under_test: Integrin alpha-4/beta-1 (Homo sapiens, UniProt P05556+P13612)
- Sequence (P05556 whole entry, the tested form may be a part): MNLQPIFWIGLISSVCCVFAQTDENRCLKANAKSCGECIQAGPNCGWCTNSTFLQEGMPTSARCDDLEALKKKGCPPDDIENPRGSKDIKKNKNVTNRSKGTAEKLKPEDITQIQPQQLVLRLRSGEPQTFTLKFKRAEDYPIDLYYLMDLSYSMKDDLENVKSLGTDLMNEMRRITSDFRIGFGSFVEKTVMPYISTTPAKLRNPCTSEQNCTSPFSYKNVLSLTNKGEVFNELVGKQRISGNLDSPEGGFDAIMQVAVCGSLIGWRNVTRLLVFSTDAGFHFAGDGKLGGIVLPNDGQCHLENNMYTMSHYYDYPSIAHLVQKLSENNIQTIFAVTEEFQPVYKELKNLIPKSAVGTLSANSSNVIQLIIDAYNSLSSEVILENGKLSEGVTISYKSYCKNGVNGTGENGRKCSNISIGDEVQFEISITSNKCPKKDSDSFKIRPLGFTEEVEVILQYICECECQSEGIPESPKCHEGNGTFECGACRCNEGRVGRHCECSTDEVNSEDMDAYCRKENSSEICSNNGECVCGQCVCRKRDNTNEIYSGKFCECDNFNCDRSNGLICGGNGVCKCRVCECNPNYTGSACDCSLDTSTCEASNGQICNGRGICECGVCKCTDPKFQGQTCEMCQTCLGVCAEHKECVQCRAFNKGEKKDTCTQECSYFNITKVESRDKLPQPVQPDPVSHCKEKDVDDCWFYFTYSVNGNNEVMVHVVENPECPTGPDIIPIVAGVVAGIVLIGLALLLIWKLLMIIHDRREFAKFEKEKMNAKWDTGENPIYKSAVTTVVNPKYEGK
- Sequence (P13612 whole entry, the tested form may be a part): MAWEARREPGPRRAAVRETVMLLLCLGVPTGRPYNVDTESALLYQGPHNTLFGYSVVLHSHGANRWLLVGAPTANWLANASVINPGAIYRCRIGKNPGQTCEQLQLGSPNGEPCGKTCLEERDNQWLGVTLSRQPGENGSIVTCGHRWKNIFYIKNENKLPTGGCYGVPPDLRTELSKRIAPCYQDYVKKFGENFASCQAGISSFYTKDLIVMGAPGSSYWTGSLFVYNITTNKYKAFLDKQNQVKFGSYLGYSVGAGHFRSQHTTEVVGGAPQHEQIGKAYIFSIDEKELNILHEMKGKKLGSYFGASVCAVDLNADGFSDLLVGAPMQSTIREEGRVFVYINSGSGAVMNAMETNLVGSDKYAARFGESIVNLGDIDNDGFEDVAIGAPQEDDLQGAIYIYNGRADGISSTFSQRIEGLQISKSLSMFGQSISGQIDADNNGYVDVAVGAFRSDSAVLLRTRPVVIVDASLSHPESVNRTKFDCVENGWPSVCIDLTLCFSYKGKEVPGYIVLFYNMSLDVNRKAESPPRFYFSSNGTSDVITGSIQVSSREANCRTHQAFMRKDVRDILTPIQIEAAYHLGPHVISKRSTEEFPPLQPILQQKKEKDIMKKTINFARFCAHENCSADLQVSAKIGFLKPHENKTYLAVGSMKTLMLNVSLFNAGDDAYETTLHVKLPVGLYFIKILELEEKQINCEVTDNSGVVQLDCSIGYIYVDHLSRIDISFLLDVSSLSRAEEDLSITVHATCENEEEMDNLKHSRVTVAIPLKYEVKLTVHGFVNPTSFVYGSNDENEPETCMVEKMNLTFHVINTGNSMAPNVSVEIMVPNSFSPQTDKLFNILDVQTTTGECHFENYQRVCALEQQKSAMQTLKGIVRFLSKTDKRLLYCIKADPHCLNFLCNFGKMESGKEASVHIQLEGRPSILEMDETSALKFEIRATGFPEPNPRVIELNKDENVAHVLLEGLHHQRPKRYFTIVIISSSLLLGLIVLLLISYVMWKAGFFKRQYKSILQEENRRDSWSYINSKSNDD
- test_details: Inhibition of Very late antigen 4 (VLA-4) and VCAM-Ig fusion protein interaction
pIC50: −log10 of the molar value.
Decide using pIC50: a value greater than or equal to 6 is criterion met, a smaller one is criterion not met.

Completed entries (count: 3):
stdin: Determine whether this compound has pIC50 no lower than 6: Cc1ccccc1NC(=O)Nc1ccc(CC(=O)Nc2cccc(C(C)CC(=O)O)c2)cc1 (configuration not stated)
stdout: criterion not met

stdin: Determine whether this compound has pIC50 no lower than 6: Cc1ccccc1NC(=O)Nc1ccc(CC(=O)Nc2cccc(C(O)CC(=O)O)c2)cc1 (configuration not stated)
stdout: criterion not met

stdin: Determine whether this compound has pIC50 no lower than 6: `C=C(S/C(=N\C(=O)Cc1ccc(NC(=O)Nc2ccccc2C)cc1)NCCC(=O)O)c1ccccc1`
stdout: criterion not met

Attention now shifts to the item below.
stdin: Determine whether this compound has pIC50 no lower than 6: Cc1ccccc1NC(=O)Nc1ccc(CC(=O)Nc2ccc(C(C)CC(=O)O)cc2)cc1 (configuration not stated)
stdout: criterion met

====

- target_under_test: Integrin alpha-4/beta-1 (Homo sapiens, UniProt P05556+P13612)
- test_details: Inhibition of Very late antigen 4 (VLA-4) and VCAM-Ig fusion protein interaction
pIC50: −log10 of the molar value.
Decide using pIC50: a value greater than or equal to 6 is true, a smaller one is false.

stdin: Determine whether this molecule has pIC50 no lower than 6: `Cc1ccccc1NC(=O)Nc1ccc(CC(=O)Nc2cccc(CCC(=O)O)c2)cc1`
stdout: false

stdin: Determine whether this molecule has pIC50 no lower than 6: CC(=O)NC(Cc1ccc(NC(=O)Cc2ccc(NC(=O)Nc3ccccc3C)cc2)cc1)C(=O)O (stereo not drawn)
stdout: true

stdin: Determine whether this molecule has pIC50 no lower than 6: `Cc1ccccc1NC(=O)Nc1ccc(CC(=O)Nc2cccc(NC(=O)NCC(=O)O)c2)cc1`
stdout: true

stdin: Determine whether this molecule has pIC50 no lower than 6: `Cc1ccccc1NC(=O)Nc1ccc(CC(=O)Nc2nc(CC(=O)O)cs2)cc1`
stdout: false

stdin: Determine whether this molecule has pIC50 no lower than 6: `Cc1ccccc1NC(=O)Nc1ccc(CC(=O)Nc2cn(CCC(=O)O)c(C)n2)cc1`
stdout: false

***
stdin: Determine whether this molecule has pIC50 no lower than 6: `Cc1ccccc1NC(=O)Nc1ccc(CC(=O)Nc2nnc(SCC(=O)O)s2)cc1`
stdout: false
